Just for reference, PubChem BioAssay is where these values come from.

# Tested on: glycogen synthase kinase-3 (GSK3A per assay name; protocol says GSK3B)
# METHOD DESCRIPTION: GSK3 binders on small-molecule microarrays, primary screen, biochemical, small-molecule microarray, 635 nm fluorescence, GSK3A (AID 1103); further: the record names both GSK3A and GSK3B
# CONDITION NOTES: small-molecule microarray binding, fluorescence 635 nm; higher = more signal
Reported composite z-score by item:

Examples with their reported composite z-score follow.
MOLECULE	TARGET DESC	composite z-score
CCN1C(=O)[C@@H]2[C@H]3C(=CC[C@@H]2C1=O)C1(OCCCO1)[C@H]1O[C@H]1[C@H]3O	glycogen synthase kinase-3 (GSK3A per assay name; protocol says GSK3B)	1.34
CC(CCC(=O)OC[C@H]1O[C@H](C#Cc2ccccc2)C=C[C@@H]1Oc1ccc(C)cc1)=NO[C@H](C)c1cn([C@H](CO)Cc2ccccc2)nn1	glycogen synthase kinase-3 (GSK3A per assay name; protocol says GSK3B)	0.197
O=C1[C@H]2[C@H]3[C@H](O)[C@H](O)CC(=NOC[C@@H](O)COCc4ccco4)[C@H]3CC[C@H]2C(=O)N1c1ccc(F)cc1F	glycogen synthase kinase-3 (GSK3A per assay name; protocol says GSK3B)	0.0894

### Prompt Give composite z-score (glycogen synthase kinase-3 (GSK3A per assay name; protocol says GSK3B)) of the following molecule: CC(CCN1CCCc2nc(C)c(C)cc21)=NO[C@@H](C)c1cc(-c2c(C)cc(C)cc2C)no1
### Response 0.525

### Prompt Then COC(=O)[C@H](C)NC(=O)CCC1CC(OC(=O)NCc2cccc3ccccc23)CC2(CCCC(COC(=O)NCC(c3ccccc3)c3ccccc3)O2)O1 (some centres not stated) ?
### Response 1.27

### Prompt Then CCCCC#C[C@@H]1C=C[C@H](Oc2cc(OC)c(OC)c(OC)c2)[C@@H](COC(=O)OCC)O1 ?
### Response -0.682

### Prompt Then CO[C@H]1COC(=O)CC=C[C@@H](C)[C@H](OC)COC(=O)CCC[C@@H]1C ?
### Response 0.274

----------
# Tested on: XIP peptide (Xip251-270) binding
# METHOD DESCRIPTION: small-molecule binders of XIP peptide, primary screen, biochemical, small-molecule microarray, fluorescence 635/667 nm, 0.1 µg/mL protein (AID 1182)
# CONDITION NOTES: fluorescent protein binding, 635 nm, higher = more signal, called active from +8 up or from −8 down
ASSAY METRIC: composite z-score
Just the number, please.

Examples with their reported composite z-score follow.
COMPOUND	composite z-score
O=C1[C@H]2[C@H]3[C@H](O)[C@H](O)CC(=NOCc4ccccc4)[C@@H]3CC[C@H]2C(=O)N1Cc1ccc2c(c1)OCO2	0.135
CC(C)CON=C1[C@H]2CCn3c(=O)n(Cc4cc5c(cc4Cl)OCO5)c(=O)n3[C@H]2[C@H](O)[C@@H]2O[C@H]12	0.26
CCOC(=O)C1=NO[C@@]2(C=C(Br)C3(OCCCO3)[C@H]3O[C@H]32)C1	2.67
COc1ccc(COC(=O)NN=C2C[C@@H](O)[C@@H](O)[C@@H]3[C@@H]4C(=O)N(c5ccc(F)cc5F)C(=O)[C@@H]4CC[C@H]23)cc1	0.051
CC(C)(C)N1C(=O)[C@H]2[C@H]3[C@H](O)C=CC(=O)[C@@H]3CC[C@H]2C1=O	0.127
COc1cccc([C@@H]2Oc3ccc(OC)cc3C(=O)[C@H]2O)c1	0.565
CCOC(=O)[C@H](CC(C)C)NC(=O)CCC1CC(OC(=O)NCc2cccc3ccccc23)CC2(CCCC(COC(=O)NCCOc3ccccc3)O2)O1 (stereo partly drawn)	0.761

// moving on: another record for composite z-score
### Prompt Entry under review: C=Cc1ccc([C@H]2N[C@H](C(=O)O)CC[C@@H]2C)cc1 . Reported composite z-score?
### Response -0.132
